Known self-splicing fitness (ln) of a selection of sequences
Assay: self-splicing fitness, log relative to wild type (ln ratio); higher = more splicing; Tetrahymena group I intron in knt gene, E. coli kanamycin selection, DiMSum; sequences stand for … in CUCUCU…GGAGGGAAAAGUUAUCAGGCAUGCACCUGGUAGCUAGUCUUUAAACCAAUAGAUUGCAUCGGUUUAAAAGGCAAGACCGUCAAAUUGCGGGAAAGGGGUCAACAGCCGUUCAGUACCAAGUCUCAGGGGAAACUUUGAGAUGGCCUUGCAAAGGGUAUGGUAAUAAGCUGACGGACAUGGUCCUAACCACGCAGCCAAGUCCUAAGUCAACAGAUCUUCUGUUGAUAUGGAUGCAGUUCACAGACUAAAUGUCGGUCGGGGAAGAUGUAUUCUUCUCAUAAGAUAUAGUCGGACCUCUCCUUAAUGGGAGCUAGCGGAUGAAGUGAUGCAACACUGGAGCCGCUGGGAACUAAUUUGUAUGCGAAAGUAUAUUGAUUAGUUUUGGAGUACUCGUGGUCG;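 also: selection with 25 µg/mL kanamycin versus none on LB agar overnight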
Settings: 30 °C
PROPERTY: self-splicing fitness (ln)

| INPUT SEQUENCE | PROPERTY | MEASURED NUMBER |
| --- | --- | --- |
| GGGAAGCAAUAUUACGUCUC | self-splicing fitness (ln) | -3.97 |
| UAAGAGCAAUAUUACGGUCG | self-splicing fitness (ln) | -2.81 |
| GCGCAGCAAUAUUACGCUGG | self-splicing fitness (ln) | -2.1 |
| CGGCAGCAAUAUUACGCAGC | self-splicing fitness (ln) | -3.98 |
| UCUAAGCAAUAUUACGCUGG | self-splicing fitness (ln) | -2.53 |
| CCACAGCAAUAUUACGGUUG | self-splicing fitness (ln) | -1.72 |
| UCCAAGCAAUAUUACGCUUG | self-splicing fitness (ln) | -3.72 |
| CACCAGCAAUAUUACGGACC | self-splicing fitness (ln) | -2.62 |
| CGUAAGCAAUAUUACGAUCA | self-splicing fitness (ln) | -1.17 |
| GGGUAGCAAUAUUACGUCCG | self-splicing fitness (ln) | -0.212 |
| GAUUAGCAAUAUUACGUCGG | self-splicing fitness (ln) | -2.66 |
| CUGGAGCAAUAUUACGUGAU | self-splicing fitness (ln) | -2.53 |
| GCGUAGCAAUAUUACGGACU | self-splicing fitness (ln) | -0.176 |
| UUCCAGCAAUAUUACGCUGA | self-splicing fitness (ln) | -3.73 |
| GUAUAGCAAUAUUACGUGAC | self-splicing fitness (ln) | -2.65 |
| UCGUAGCAAUAUUACGAGUU | self-splicing fitness (ln) | -3.76 |
